Source of measurements: ChEMBL document CHEMBL1926604

- TEST: Clearance in dog at 5 umol/kg, iv
- Format: ADME, organism-based, Canis lupus familiaris
- PARTICULARS: in vivo
Criterion: clearance strictly under 20 mL/min/kg. Met: met. Not met: not met.

Does the reported clearance of the following compound sit strictly below 20 mL/min/kg? `COc1ccc(N(Cc2cnccc2C)C2CCN([C@H](C)CCNC(=O)c3c(C)cc(C(=O)NC(C)C)nc3C)CC2)cc1`
not met

Does the reported clearance of the following compound sit strictly below 20 mL/min/kg? `COCCOc1ccc(N(Cc2cnccc2C)C2CCN([C@H](C)CCNC(=O)c3c(C)cc(Cl)nc3C)CC2)cc1`
not met

Does the reported clearance of the following compound sit strictly below 20 mL/min/kg? `COc1ccc(N(Cc2cccc(C#N)n2)C2CCN([C@H](C)CCNC(=O)c3c(C)cc(Cl)nc3C)CC2)cc1`
not met

Does the reported clearance of the following compound sit strictly below 20 mL/min/kg? `COc1ccc(N(Cc2cnccc2C)C2CCN([C@H](C)CCNC(=O)c3c(C)ccnc3Cl)CC2)cc1`
not met

Does the reported clearance of the following compound sit strictly below 20 mL/min/kg? `COc1ccc(N(Cc2cccnc2)C2CCN([C@H](C)CCNC(=O)c3c(C)cc(Cl)nc3C)CC2)cc1`
not met

Does the reported clearance of the following compound sit strictly below 20 mL/min/kg? `COc1ccc(N(Cc2cnccc2C)C2CCN([C@H](C)CCNC(=O)c3c(C)cc(F)nc3C)CC2)cc1`
not met

Does the reported clearance of the following compound sit strictly below 20 mL/min/kg? `COc1ccc(N(Cc2cnccc2C)C2CCN([C@H](C)CCNC(=O)c3c(C)cc(Cl)nc3C)CC2)cc1`
not met

Does the reported clearance of the following compound sit strictly below 20 mL/min/kg? CC(CCNC(=O)c1c(Cl)cncc1Cl)N1CCC(N(Cc2cccc(C#N)c2)c2ccc(OC(F)(F)F)cc2)CC1 (centres undefined)
met

Does the reported clearance of the following compound sit strictly below 20 mL/min/kg? CC(CCNC(=O)c1c(Cl)cncc1Cl)N1CCC(N(Cc2ccccc2)c2ccc(Oc3ccc(C(=O)O)cc3)cc2)CC1 (centres undefined)
met

---

- TEST: Volume of distribution at steady state in rat at 10 umol/kg, iv
- Format: ADME, organism-based
- PARTICULARS: in vivo, 10 umol/kg, read-out: Vdss
I'd be grateful if you could share measured Vd for these entries.
Units required after the number.

Need Vd of `COc1ccc(N(Cc2cnccc2C)C2CCN([C@H](C)CCNC(=O)c3c(C)cc(F)nc3C)CC2)cc1` , thanks.
4.6 L/kg

Need Vd of CC(CCNC(=O)c1c(Cl)cncc1Cl)N1CCC(N(Cc2ccccc2)c2ccc(Oc3ccc(C(=O)O)cc3)cc2)CC1 (stereo unspecified) , thanks.
4.2 L/kg

Need Vd of CC(CCNC(=O)c1c(Cl)cncc1Cl)N1CCC(N(Cc2cccc(C#N)c2)c2ccc(OC(F)(F)F)cc2)CC1 (stereo unspecified) , thanks.
23.7 L/kg

Need Vd of `COc1ccc(N(Cc2cnccc2C)C2CCN([C@H](C)CCNC(=O)c3c(C)ccnc3Cl)CC2)cc1` , thanks.
15.4 L/kg

Need Vd of `COCCOc1ccc(N(Cc2cnccc2C)C2CCN([C@H](C)CCNC(=O)c3c(C)cc(Cl)nc3C)CC2)cc1` , thanks.
9.2 L/kg

Need Vd of `COc1ccc(N(Cc2cnccc2C)C2CCN([C@H](C)CCNC(=O)c3c(C)cc(Cl)nc3C)CC2)cc1` , thanks.
40.5 L/kg

---

- TEST: Oral bioavailability in rat
- Assay type: ADME, organism-based
- PARTICULARS: in vivo
Give Condition met when the value for bioavailability is at least 60%. Give Condition not met when it is less.

Reported bioavailability reaches at least 60% for `COc1ccc(N(Cc2cnccc2C)C2CCN([C@H](C)CCNC(=O)c3c(C)cc(F)nc3C)CC2)cc1` ?
Condition not met

Reported bioavailability reaches at least 60% for `COc1ccc(N(Cc2cnccc2C)C2CCN([C@H](C)CCNC(=O)c3c(C)cc(Cl)nc3C)CC2)cc1` ?
Condition met

Reported bioavailability reaches at least 60% for `COCCOc1ccc(N(Cc2cnccc2C)C2CCN([C@H](C)CCNC(=O)c3c(C)cc(Cl)nc3C)CC2)cc1` ?
Condition not met

Reported bioavailability reaches at least 60% for CC(CCNC(=O)c1c(Cl)cncc1Cl)N1CCC(N(Cc2ccccc2)c2ccc(Oc3ccc(C(=O)O)cc3)cc2)CC1 (configuration not stated) ?
Condition not met

Reported bioavailability reaches at least 60% for CC(CCNC(=O)c1c(Cl)cncc1Cl)N1CCC(N(Cc2cccc(C#N)c2)c2ccc(OC(F)(F)F)cc2)CC1 (configuration not stated) ?
Condition not met

Reported bioavailability reaches at least 60% for `COc1ccc(N(Cc2cnccc2C)C2CCN([C@H](C)CCNC(=O)c3c(C)ccnc3Cl)CC2)cc1` ?
Condition met

Reported bioavailability reaches at least 60% for `COc1ccc(N(Cc2cccnc2)C2CCN([C@H](C)CCNC(=O)c3c(C)cc(Cl)nc3C)CC2)cc1` ?
Condition not met

---

- TEST: Cytotoxic activity against human PBMC assessed as reduction in cell viability
- Type: cell-based
EXPERIMENTAL ENDPOINT: CC50

Need CC50 of `COCCOc1ccc(N(Cc2cnccc2C)C2CCN([C@H](C)CCNC(=O)c3c(C)cc(C#N)nc3C)CC2)cc1` , thanks.
> 32.6 µM

Need CC50 of CC(CCNC(=O)c1c(Cl)cncc1Cl)N1CCC(N(Cc2cccc(C#N)c2)c2ccc(C(F)(F)F)cc2)CC1 (stereo not drawn) , thanks.
12.3 µM

Need CC50 of CC(CCNC(=O)c1c(Cl)cncc1Cl)N1CCC(N(Cc2ccccc2)c2ccc(Oc3ccc(C(=O)O)cc3)cc2)CC1 (stereo not drawn) , thanks.
22.1 µM

Need CC50 of `Cc1ccncc1CN(c1ccc(OCC(N)=O)cc1)C1CCN([C@H](C)CCNC(=O)c2c(C)cc(C#N)nc2C)CC1` , thanks.
> 34.3 µM

Need CC50 of `COc1ccc(N(Cc2cccc(C#N)n2)C2CCN([C@H](C)CCNC(=O)c3c(C)cc(C#N)nc3C)CC2)cc1` , thanks.
> 36.3 µM

Need CC50 of `COc1ccc(N(Cc2cnccc2C)C2CCN([C@H](C)CCNC(=O)c3c(C)cc(F)nc3C)CC2)cc1` , thanks.
> 36.3 µM

Need CC50 of `COc1ccc(N(Cc2cnccc2C)C2CCN([C@H](C)CCNC(=O)c3c(C)cncc3C)CC2)cc1` , thanks.
> 38.8 µM

Need CC50 of `COc1ccc(N(Cc2cnccc2C)C2CCN([C@H](C)CCNC(=O)c3c(C)ccnc3Cl)CC2)cc1` , thanks.
> 37.7 µM

---

- TEST: AUC (0 to infinity) in dog
- Assay type: ADME, organism-based, Canis lupus familiaris
- Parameters: time infinity; concentration or dose not given beside the values
- PARTICULARS: plasma
I'd be grateful if you could share measured AUC(0-inf) for these entries.
Entry rule: numbers only, all in µM·h.

Need AUC(0-inf) of `COc1ccc(N(Cc2cnccc2C)C2CCN([C@H](C)CCNC(=O)c3c(C)cc(F)nc3C)CC2)cc1` , thanks.
0.65

Need AUC(0-inf) of `COc1ccc(N(Cc2cnccc2C)C2CCN([C@H](C)CCNC(=O)c3c(C)ccnc3Cl)CC2)cc1` , thanks.
0.2

Need AUC(0-inf) of CC(CCNC(=O)c1c(Cl)cncc1Cl)N1CCC(N(Cc2ccccc2)c2ccc(Oc3ccc(C(=O)O)cc3)cc2)CC1 (centres undefined) , thanks.
14.5

Need AUC(0-inf) of `COc1ccc(N(Cc2cnccc2C)C2CCN([C@H](C)CCNC(=O)c3c(C)cc(C(=O)NC(C)C)nc3C)CC2)cc1` , thanks.
0.48

---

- TEST: Cytotoxic activity against human PBMC assessed as reduction in cell viability
- Format: cell-based
I'd be grateful if you could share measured CC50 for these entries.

Need CC50 of COc1ccc(N(Cc2ccccc2)C2CCN(C(C)CCNC(=O)c3c(Cl)cncc3Cl)CC2)cc1 (configuration not stated) , thanks.
36.5 µM

Need CC50 of CC(CCNC(=O)c1c(Cl)cncc1Cl)N1CCC(N(Cc2ccccc2)c2ccc(OC(F)(F)F)cc2)CC1 (configuration not stated) , thanks.
4 µM

Need CC50 of `COCCOc1ccc(N(Cc2cnccc2C)C2CCN([C@H](C)CCNC(=O)c3c(C)cc(Cl)nc3C)CC2)cc1` , thanks.
> 32.7 µM

Need CC50 of `COc1ccc(N(Cc2cccc(C#N)n2)C2CCN([C@H](C)CCNC(=O)c3c(C)cc(Cl)nc3C)CC2)cc1` , thanks.
> 35.1 µM

Need CC50 of COc1ccc(N(Cc2cccc(C#N)c2)C2CCN(C(C)CCNC(=O)c3c(Cl)cncc3Cl)CC2)cc1 (configuration not stated) , thanks.
> 1.76 µM

Need CC50 of CC(CCNC(=O)c1c(Cl)cncc1Cl)N1CCC(N(Cc2ccccc2)c2ccc(C(F)(F)F)cc2)CC1 (configuration not stated) , thanks.
8.1 µM

Need CC50 of `COc1ccc(N(Cc2cccnc2)C2CCN([C@H](C)CCNC(=O)c3c(C)cc(Cl)nc3C)CC2)cc1` , thanks.
> 37.3 µM

Need CC50 of Cc1ccncc1CN(c1ccc([S+](C)[O-])cc1)C1CCN([C@H](C)CCNC(=O)c2c(C)ncnc2C)CC1 (some centres not stated) , thanks.
> 32.4 µM

Need CC50 of COc1cccc(CN(c2ccc(Br)cc2)C2CCN(C(C)CCNC(=O)c3c(Cl)cncc3Cl)CC2)c1 (configuration not stated) , thanks.
6.4 µM

Need CC50 of CC(CCNC(=O)c1c(Cl)cncc1Cl)N1CCC(N(Cc2cccc(C#N)c2)c2ccc(OC(F)(F)F)cc2)CC1 (configuration not stated) , thanks.
6 µM

Need CC50 of `COCCOc1ccc(N(Cc2cnccc2C)C2CCN([C@H](C)CCNC(=O)c3c(C)cc(F)nc3C)CC2)cc1` , thanks.
> 32.7 µM

Need CC50 of `COc1ccc(N(Cc2cccc(C#N)n2)C2CCN([C@H](C)CCNC(=O)c3c(C)cc(F)nc3C)CC2)cc1` , thanks.
> 35.8 µM

Need CC50 of `COc1ccc(N(Cc2cnccc2C)C2CCN([C@H](C)CCNC(=O)c3c(C)cc(Cl)nc3C)CC2)cc1` , thanks.
> 36.4 µM

Need CC50 of CC(CCNC(=O)c1c(Cl)cncc1Cl)N1CCC(N(Cc2ccc(Cl)cc2)c2ccc(Br)cc2)CC1 (configuration not stated) , thanks.
4.3 µM

Need CC50 of `COc1ccc(N(Cc2cnccc2C)C2CCN([C@H](C)CCNC(=O)c3c(C)ncnc3C)CC2)cc1` , thanks.
> 38.3 µM

Need CC50 of CC(CCNC(=O)c1c(Cl)cncc1Cl)N1CCC(N(Cc2ccccc2)c2ccc(C#N)cc2)CC1 (configuration not stated) , thanks.
9.7 µM

Need CC50 of `COc1ccc(N(Cc2cnccc2C)C2CCN([C@H](C)CCNC(=O)c3c(C)ccnc3C)CC2)cc1` , thanks.
> 38.9 µM
